The reported numbers originate from the supplement of paper PMC3545927.

Below, each entry is listed alongside its reported furin cleavage Z-score.
- experimental.system: furin, P09958;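 also: purified furin at 1:10 enzyme:substrate in 50 mM HEPES pH 7.5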
- Sequence (P09958 whole entry): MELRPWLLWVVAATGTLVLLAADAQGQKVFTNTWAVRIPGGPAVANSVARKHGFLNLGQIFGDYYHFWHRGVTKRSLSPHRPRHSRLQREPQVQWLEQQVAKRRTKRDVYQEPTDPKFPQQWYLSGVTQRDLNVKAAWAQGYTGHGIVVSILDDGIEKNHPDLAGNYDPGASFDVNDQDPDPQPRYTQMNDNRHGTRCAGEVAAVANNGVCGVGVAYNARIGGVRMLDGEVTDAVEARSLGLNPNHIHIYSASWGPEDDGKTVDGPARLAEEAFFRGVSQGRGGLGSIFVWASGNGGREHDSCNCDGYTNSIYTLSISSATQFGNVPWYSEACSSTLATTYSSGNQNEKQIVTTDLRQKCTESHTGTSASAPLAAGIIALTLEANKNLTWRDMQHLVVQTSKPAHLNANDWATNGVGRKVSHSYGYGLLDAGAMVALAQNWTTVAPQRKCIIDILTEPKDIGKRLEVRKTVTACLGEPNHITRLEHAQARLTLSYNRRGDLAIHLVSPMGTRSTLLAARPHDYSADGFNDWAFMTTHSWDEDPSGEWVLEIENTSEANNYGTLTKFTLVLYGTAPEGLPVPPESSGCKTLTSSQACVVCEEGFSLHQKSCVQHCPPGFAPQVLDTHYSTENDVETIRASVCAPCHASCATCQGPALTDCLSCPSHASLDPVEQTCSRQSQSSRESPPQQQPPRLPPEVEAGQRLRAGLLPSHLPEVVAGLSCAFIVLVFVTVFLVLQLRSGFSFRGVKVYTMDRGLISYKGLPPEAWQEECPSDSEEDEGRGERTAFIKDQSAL
- experiment: furin cleavage Z-score vs untreated control; higher = more cleavage, active = 3.5 or more, inactive = 1 or less, 8 variable residues between constant flanks
- condition.parameters: 7.5 min
Some of the results follow. No count for the full screen is at hand.
Write the value as a bare number.

Here's what some known entries look like.
CADCMEECSQAGNASASA [HC1820]    -0.19
CAYLHRVGRGAGNASASA [FS-390]    3.96
CAQSFQVAHLAGNASASA [HC771]    0.912
CAFPMRGRRGAGNASASA [FS-1454]    -0.221
CAYLNRKRRGAGNASASA [FS-634]    9.69
CARPRRLLQAAGNASASA [FS-2165]    -1.03

# furin cleavage Z-score (sequence: CARAARFAKTAGNASASA [FS-1885] ) is -1.44

# furin cleavage Z-score (sequence: CAIKSRFGRGAGNASASA [FS-541] ) is 4.29

# furin cleavage Z-score (sequence: CARKRRAPHGAGNASASA [FS-2493] ) is 4.63

# furin cleavage Z-score (sequence: CAHLVPVLRGAGNASASA [FS-595] ) is 0.989

# furin cleavage Z-score (sequence: CARRFRVVSGAGNASASA [FS-1774] ) is 0.247
